Attribution: PubChem BioAssay (EPA / NIEHS)

Read-out: CYP4A11 (gene 1579)
assay-notes: LTEA_HepaRG_CYP4A11: Life Technologies and Expression Analysis (LTEA) Assay for CYP4A11 using HepaRG (AID 2283486)
applied-conditions: mRNA level, 48 h; actives raise or lower the signal
Active and inactive are the calls of the source. Rule for the calls: active = hit-call score of the fitted dose curve at least 0.9, where 1 is the maximum; inactive = score below 0.9.
// one of T for active, F for inactive, no free text

smiles-code	category
COC(=O)CC(=O)OC	F

Test call, this molecule: `CCOCCO`
F

Test call, this molecule: `CC[C@H]1OC(=O)[C@H](C)[C@@H](O[C@H]2C[C@@](C)(OC)[C@@H](O)[C@H](C)O2)[C@H](C)[C@@H](O[C@@H]2O[C@H](C)C[C@H](N(C)C)[C@H]2O)[C@](C)(O)C[C@@H](C)C(=O)[C@H](C)[C@@H](O)[C@]1(C)O`
F

Test call, this molecule: `CCn1nc(Cc2ccccc2)cc1C1CCN(C[C@H]2C[C@H](N(C)[C@@H](C(=O)O)C(C)C)C[C@@H]2c2cccc(F)c2)CC1`
T

Test call, this molecule: `CCCCCCCCCCCCCCCO`
F

Test call, this molecule: `CC(=O)OC[C@H]1O[C@@](COC(C)=O)(O[C@H]2O[C@H](COC(C)=O)[C@@H](OC(C)=O)[C@H](OC(C)=O)[C@H]2OC(C)=O)[C@@H](OC(C)=O)[C@@H]1OC(C)=O`
F

Test call, this molecule: `CN(C)c1ccc(N=NS(=O)(=O)O)cc1`
F

Test call, this molecule: `COC(=O)c1c(Cl)c(Cl)c(C(=O)OC)c(Cl)c1Cl`
F

Test call, this molecule: `CC[C@H](C)C(=O)O[C@H]1C[C@@H](C)C=C2C=C[C@H](C)[C@H](CC[C@@H]3C[C@@H](O)CC(=O)O3)[C@H]21`
F

---

Read-out: ABC Transporter (ABCC3), ABCC3 (gene 8714)
assay-notes: LTEA_HepaRG_ABCC3: Life Technologies and Expression Analysis (LTEA) Assay for ABC Transporter (ABCC3) using HepaRG (AID 2283462)
applied-conditions: mRNA level, 48 h; actives raise or lower the signal
Calls of active or inactive are those of the source. Rule for the calls: active = hit-call score of the fitted dose curve at least 0.9, where 1 is the maximum; inactive = score below 0.9.
// one of 1 (yes) for active, 0 (no) for inactive, no free text

Answered examples (8):
                                   compound  category
0                               O=C1CCCCCN1    0 (no)
1                              Cc1ccc(O)cc1    0 (no)
2                                  NC(=O)NO    0 (no)
3  CCCCC(CC)COC(=O)CCCCCCCCC(=O)OCC(CC)CCCC (centres undefined)    0 (no)
4           CN(C)c1ccc(Cc2ccc(N(C)C)cc2)cc1    0 (no)
5                        C1N2CN3CN1CN(C2)C3    0 (no)
6  O=C(O)CCN(C1(C(=O)NO)CCCC1)S(=O)(=O)c1ccc(Oc2ccc(F)cc2)cc1    0 (no)
7  COc1cccc(-c2ccc(/C=C\CN3CCCCCC3)cc2Cl)c1   1 (yes)

Test call, this compound: `Cn1c(=O)cc(Oc2ccc(F)cc2F)c2cnc(NCC(C)(C)O)nc21`
0 (no)

Test call, this compound: `On1ccccc1=S`
0 (no)

---

assay-notes: BSK_hDFCGF_Proliferation: Cell Proliferation Assessment in the BioMAP Diversity Plus: hDFCGF Assay (AID 2283059);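 note: curves fitted for both rise and fall of signal versus DMSO baseline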
applied-conditions: primary human foreskin fibroblasts
Activity calls are given as the source filed them. How the source made its calls: active means hit-call score of the fitted dose curve at least 0.9, where 1 is the maximum; inactive means score below 0.9.
// one of Y (active), N (inactive), no free text

molecule	category
Cn1c(=O)c2c(ncn2C)n(C)c1=O	N
CC(C)=CCC/C(C)=C\CO	Y
CC(C)=CCCC(C)CCO (stereo not drawn)	Y
COC(=O)c1c(Cl)c(Cl)c(C(=O)OC)c(Cl)c1Cl	N
CCCCC(CC)COC(=O)CCCCCCCCC(=O)OCC(CC)CCCC (stereo not drawn)	N
O=c1n(CC2CO2)c(=O)n(CC2CO2)c(=O)n1CC1CO1 (stereo not drawn)	Y
C1=CCCC=CCCC=CCC1	N
NC(=O)NO	N
O=C(OC[C@H]1O[C@@H](OC(=O)c2cc(O)c(O)c(OC(=O)c3cc(O)c(O)c(O)c3)c2)[C@H](OC(=O)c2cc(O)c(O)c(OC(=O)c3cc(O)c(O)c(O)c3)c2)[C@@H](OC(=O)c2cc(O)c(O)c(OC(=O)c3cc(O)c(O)c(O)c3)c2)[C@@H]1OC(=O)c1cc(O)c(O)c(OC(=O)c2cc(O)c(O)c(O)c2)c1)c1cc(O)c(O)c(OC(=O)c2cc(O)c(O)c(O)c2)c1	Y
C=CCCCCCCCCC(=O)O	N

Test call, this molecule: O=C1OC(=O)C2C3C=CC(C3)C12 (stereo not drawn)
N

Test call, this molecule: `CCCCCCCCCCCCc1ccccc1`
N

Test call, this molecule: `CC(C)=CCC/C(C)=C/CO`
N

Test call, this molecule: `On1ccccc1=S`
Y

Test call, this molecule: `CC(C)CCO`
Y

Test call, this molecule: `CC1(C)C(=O)N(Br)C(=O)N1Br`
N

Test call, this molecule: `COc1ccc(/C=C/S(=O)(=O)NC(=O)c2ccc(C)cc2Cl)cc1`
Y

Test call, this molecule: `CC(=O)c1ccc2c(c1)[C@H](NC(=O)c1ccc(F)cc1)[C@@H](O)C(C)(C)O2`
N

Test call, this molecule: CC(O)CN(CCN(CC(C)O)CC(C)O)CC(C)O (stereo not drawn)
N

Test call, this molecule: `O=C(CCCCCCCCc1cccnc1)N1CCC(C=C(c2ccccc2)c2ccccc2)CC1`
Y

Test call, this molecule: `CN(C)c1ccc(N=NS(=O)(=O)O)cc1`
Y

Test call, this molecule: `COCCOCCOCCOC`
N

Test call, this molecule: `CCOCCOCCOCCO`
N

---

Read-out: Glutamate-cysteine ligase regulatory (GCLM), GCLM (gene 2730)
assay-notes: LTEA_HepaRG_GCLM: Life Technologies and Expression Analysis (LTEA) Assay for Glutamate-cysteine ligase regulatory (GCLM) using HepaRG (AID 2283500)
applied-conditions: mRNA level, 48 h; actives raise or lower the signal
Activity calls are given as the source filed them. Rule for the calls: active = hit-call score of the fitted dose curve at least 0.9, where 1 is the maximum; inactive = score below 0.9.
// one of yes (1) for active, no (0) for inactive, no free text

Answered examples (4):
In [3]: df
Out[3]:
                                   molecule  category
0  COc1cccc(-c2ccc(/C=C\CN3CCCCCC3)cc2Cl)c1   yes (1)
1              CN(C)c1ccc(N=NS(=O)(=O)O)cc1   yes (1)
2  CCC(C)(C)C(=O)O[C@H]1C[C@@H](C)C=C2C=C[C@H](C)[C@H](CC[C@@H]3C[C@@H](O)CC(=O)O3)[C@H]21    no (0)
3                           COC(=O)CC(=O)OC    no (0)

Test call, this molecule: `Nc1nc2ncc(CNc3ccc(C(=O)N[C@@H](CCC(=O)O)C(=O)O)cc3)nc2c(=O)[nH]1`
no (0)

Test call, this molecule: `CC(C)=CCCC(C)=CC=O`
no (0)

Test call, this molecule: `Cn1cnc([N+](=O)[O-])c1Sc1ncnc2nc[nH]c12`
no (0)

Test call, this molecule: `Oc1ccc2c(c1)-c1ccccc1C2`
no (0)

Test call, this molecule: `O=C(O)c1cc(N=Nc2ccc(S(=O)(=O)Nc3ccccn3)cc2)ccc1O`
no (0)

---

Read-out: TIMP1, TIMP1 (gene 7076)
assay-notes: LTEA_HepaRG_TIMP1: Life Technologies and Expression Analysis (LTEA) Assay for TIMP1 using HepaRG (AID 2283534);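 note: TaqMan qRT-PCR signal normalized to ACTB GAPDH and POLR2A housekeeping genes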
applied-conditions: mRNA level, 48 h; actives raise or lower the signal
Activity calls are given as the source filed them. Rule for the calls: active = hit-call score of the fitted dose curve at least 0.9, where 1 is the maximum; inactive = score below 0.9.
// one of Y (active), N (inactive), no free text

>>> print(df.to_string())
                                   compound  category
0  O=c1n(CC2CO2)c(=O)n(CC2CO2)c(=O)n1CC1CO1 (stereo not drawn)         N

Test call, this compound: `CC(=O)c1ccc2c(c1)[C@H](NC(=O)c1ccc(F)cc1)[C@@H](O)C(C)(C)O2`
N

Test call, this compound: `CC1=CC(=O)CC(C)(C)C1`
N

Test call, this compound: O=C(O)CC(O)C(=O)O (stereo not drawn)
N

---

assay-notes: BSK_hDFCGF_SRB: Viability Assessment in the BioMAP Diversity Plus: hDFCGF Assay (AID 2283061);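 note: cells exposed to compound for 24 h before the read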
applied-conditions: primary human foreskin fibroblasts
Description: BSK_hDFCGF is a cell-based, multiplexed-readout assay that uses foreskin fibroblast, a human skin primary cell, with measurements taken at 24 hours after chemical dosing in a 96-well plate.BSK_hDFCGF_SRB is an assay component measured in the BSK_hDFCGF assay. It measures 0.1% sulforhodamine related to cell death using Sulforhodamine staining technology.Data from the assay component BSK_hDFCGF_SRB was analyzed into 1 assay endpoint. […]
The source made the active and inactive calls. How the source made its calls: active means hit-call score of the fitted dose curve at least 0.9, where 1 is the maximum; inactive means score below 0.9.
// one of yes (active), no (inactive), no free text

                                   compound  category
0                        CCCCCCc1ccc(O)cc1O       yes
1                                    CCOCCO        no
2                               On1ccccc1=S       yes
3  CCCCC(CC)COC(=O)c1ccc(C(=O)OCC(CC)CCCC)cc1 (stereo not drawn)        no
4       CC(C)=CCCC(C)CCO (stereo not drawn)        no
5       Cc1c(-c2cccnc2)c2ccccc2n1CCCCC(=O)O        no

Test call, this compound: `CCNc1ccccc1`
no

Test call, this compound: `CC[C@H]1CC[C@H](NCc2cc3c(cc2OC)[C@H]2C[C@H]2C(=O)N3C)[C@H](c2ccccc2)N1`
no

Test call, this compound: `Clc1nc(Cl)c(Cl)c(Cl)c1Cl`
no

Test call, this compound: `COc1cccc(-c2ccc(/C=C\CN3CCCCCC3)cc2Cl)c1`
yes

Test call, this compound: O=c1n(CC2CO2)c(=O)n(CC2CO2)c(=O)n1CC1CO1 (stereo not drawn)
no

Test call, this compound: `COC(=O)c1ccccc1O`
no

Test call, this compound: `CC(=O)OCCC(C)C`
no

Test call, this compound: `CCC(C)(C)C(=O)O[C@H]1C[C@@H](C)C=C2C=C[C@H](C)[C@H](CC[C@@H]3C[C@@H](O)CC(=O)O3)[C@H]21`
yes

Test call, this compound: `COc1ccc2sc(C(=O)Nc3nnn[nH]3)c(OC(C)C)c2c1`
yes

Test call, this compound: Fc1ccccc1[C@@H](F)COC1CCC(Nc2ncnc3[nH]ncc23)CC1 (stereo partly drawn)
no

Test call, this compound: O=C1CCC(N2C(=O)c3ccccc3C2=O)C(=O)N1 (stereo not drawn)
no

Test call, this compound: CC(C)CC(C)(O)C#CC(C)(O)CC(C)C (stereo not drawn)
no
